Reference for the values: patent EP0178388A1

Recorded MIC by entry
Tested on: Staphylococcus aureus 209 P
experiment: In vitro antibacterial activity, MIC (standard strain)
Format: cell-based
condition.summary: 10^6 cells/ml, read-out: MIC
Where a name gives a salt, the structure may show the parent alone.
attribute.measured: MIC

1. CC1CN(c2c(F)cc3c(=O)c(C(=O)O)cn(C4CC4)c3c2Cl)CC(C)N1 (stereo not shown) [Example 6, hydrochloride] | 0.2 µg/mL
2. CC1CN(c2c(F)cc3c(=O)c(C(=O)O)cn(C4CC4)c3c2F)CC(C)N1 (stereo not shown) | 0.2 µg/mL
3. CC1CN(c2c(F)cc3c(=O)c(C(=O)O)cn(C4CC4)c3c2F)CCN1 (stereo not shown) | 0.2 µg/mL
4. CC1CN(c2c(F)cc3c(=O)c(C(=O)O)cn(C4CC4)c3c2Cl)CCN1 (stereo not shown) [Example 5, hydrochloride] | 0.1 µg/mL

---

System: Salmonella enteritidis IID 604
experiment: In vitro antibacterial activity, MIC (standard strain)
Assay type: cell-based
condition.summary: Salmonella enterica; Salmonella enteritidis IID 604, 10^6 cells/ml, standard strain; read-out: MIC
Structures can show the parent of a compound that is named as a salt.
Recorded MIC by entry
attribute.measured: MIC (µg/mL)

1. CC1CN(c2c(F)cc3c(=O)c(C(=O)O)cn(C4CC4)c3c2F)CCN1 (stereo not shown) [Example 2] | 0.025
2. CC1CN(c2c(F)cc3c(=O)c(C(=O)O)cn(C4CC4)c3c2Cl)CCN1 (stereo not shown) [Example 5, hydrochloride] | 0.025
3. CC1CN(c2c(F)cc3c(=O)c(C(=O)O)cn(C4CC4)c3c2F)CC(C)N1 (stereo not shown) [Example 4] | 0.05
4. CC1CN(c2c(F)cc3c(=O)c(C(=O)O)cn(C4CC4)c3c2Cl)CC(C)N1 (stereo not shown) [Example 6, hydrochloride] | 0.1

---

Tested on: Shigella sonnei IID 969
experiment: In vitro antibacterial activity, MIC (standard strain)
Type: cell-based
condition.summary: IID969, Shigella sonnei IID 969, 10^6 cells/ml
Structures can show the parent of a compound that is named as a salt.
Recorded MIC by entry
attribute.measured: MIC

1) O=C(O)c1cn(C2CC2)c2cc(N3CCNCC3)c(F)cc2c1=O [CFLX, reference compound] | ≤ 0.006 µg/mL
2) CC1CN(c2c(F)cc3c(=O)c(C(=O)O)cn(C4CC4)c3c2Cl)CCN1 (centres unmarked) [Example 5, hydrochloride] | 0.0125 µg/mL
3) CC1CN(c2c(F)cc3c(=O)c(C(=O)O)cn(C4CC4)c3c2Cl)CC(C)N1 (centres unmarked) [Example 6, hydrochloride] | 0.05 µg/mL
4) CC1CN(c2c(F)cc3c(=O)c(C(=O)O)cn(C4CC4)c3c2F)CCN1 (centres unmarked) | 0.0125 µg/mL
5) CC1CN(c2c(F)cc3c(=O)c(C(=O)O)cn(C4CC4)c3c2F)CC(C)N1 (centres unmarked) | 0.0125 µg/mL

---

Tested on: S. epidermidis IID 866
experiment: In vitro antibacterial activity, MIC (standard strain)
Assay type: cell-based
condition.summary: Staphylococcus epidermidis, IID866, S. epidermidis IID 866, 10^6 cells/ml
Where a name gives a salt, the structure may show the parent alone.
Recorded MIC by entry
attribute.measured: MIC (mg/L)

1. CC1CN(c2c(F)cc3c(=O)c(C(=O)O)cn(C4CC4)c3c2Cl)CCN1 (stereo not shown) [Example 5, hydrochloride] | 0.1
2. CC1CN(c2c(F)cc3c(=O)c(C(=O)O)cn(C4CC4)c3c2F)CC(C)N1 (stereo not shown) | 0.39
3. CC1CN(c2c(F)cc3c(=O)c(C(=O)O)cn(C4CC4)c3c2Cl)CC(C)N1 (stereo not shown) [Example 6, hydrochloride] | 0.2
4. CC1CN(c2c(F)cc3c(=O)c(C(=O)O)cn(C4CC4)c3c2F)CCN1 (stereo not shown) | 0.2
